# System Name: HNE (human neutrophil elastase) (Homo sapiens)
# Construct: purchased Calbiochem
# Sequence (P08246 30-267): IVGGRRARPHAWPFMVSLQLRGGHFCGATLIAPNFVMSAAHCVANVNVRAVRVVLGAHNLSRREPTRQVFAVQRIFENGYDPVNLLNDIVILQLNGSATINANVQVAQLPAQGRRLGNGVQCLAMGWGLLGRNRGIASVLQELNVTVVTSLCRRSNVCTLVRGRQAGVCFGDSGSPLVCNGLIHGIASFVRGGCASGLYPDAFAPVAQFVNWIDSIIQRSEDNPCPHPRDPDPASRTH
# Assay: HNE inhibition assay (fluorogenic substrate cleavage)
# Assay type: biochemical
# Cond: mean ± SD of three independent experiments; read-out: IC50 (HNE inhibitory activity)
pIC50: −log10 of the molar value.
Measurement Type: pIC50

# annotated cases, reported pIC50 shown
Item Smiles	Measurement Type	Recorded Result
CC(C)(C)C(=O)Oc1ccc(S(=O)(=O)n2nc(C#N)c3cc([N+](=O)[O-])ccc32)cc1	pIC50	7.03
CC(C)(C)C(=O)Oc1ccc(S(=O)(=O)n2ncc(=O)c3ccccc32)cc1	pIC50	7.72

a: CC(C)(C)C(=O)Oc1ccc(S(=O)(=O)n2nc(C#N)c3ccccc32)cc1
b: CCOC(=O)c1cn(C)c2ccc(NS(=O)(=O)c3ccc(OC(=O)C(C)(C)C)cc3)cc12
c: CC(C)(C)C(=O)Oc1ccc(S(=O)(=O)n2nc(C(F)(F)F)c3cccnc32)cc1
Enquiry: Please list the entries, largest pIC50 first. Sort the labels as requested; that list is your answer.
Return: a, c, b
